target or test system: PI3K γ (Homo sapiens, UniProt P48736)
Sequence (P48736 whole entry): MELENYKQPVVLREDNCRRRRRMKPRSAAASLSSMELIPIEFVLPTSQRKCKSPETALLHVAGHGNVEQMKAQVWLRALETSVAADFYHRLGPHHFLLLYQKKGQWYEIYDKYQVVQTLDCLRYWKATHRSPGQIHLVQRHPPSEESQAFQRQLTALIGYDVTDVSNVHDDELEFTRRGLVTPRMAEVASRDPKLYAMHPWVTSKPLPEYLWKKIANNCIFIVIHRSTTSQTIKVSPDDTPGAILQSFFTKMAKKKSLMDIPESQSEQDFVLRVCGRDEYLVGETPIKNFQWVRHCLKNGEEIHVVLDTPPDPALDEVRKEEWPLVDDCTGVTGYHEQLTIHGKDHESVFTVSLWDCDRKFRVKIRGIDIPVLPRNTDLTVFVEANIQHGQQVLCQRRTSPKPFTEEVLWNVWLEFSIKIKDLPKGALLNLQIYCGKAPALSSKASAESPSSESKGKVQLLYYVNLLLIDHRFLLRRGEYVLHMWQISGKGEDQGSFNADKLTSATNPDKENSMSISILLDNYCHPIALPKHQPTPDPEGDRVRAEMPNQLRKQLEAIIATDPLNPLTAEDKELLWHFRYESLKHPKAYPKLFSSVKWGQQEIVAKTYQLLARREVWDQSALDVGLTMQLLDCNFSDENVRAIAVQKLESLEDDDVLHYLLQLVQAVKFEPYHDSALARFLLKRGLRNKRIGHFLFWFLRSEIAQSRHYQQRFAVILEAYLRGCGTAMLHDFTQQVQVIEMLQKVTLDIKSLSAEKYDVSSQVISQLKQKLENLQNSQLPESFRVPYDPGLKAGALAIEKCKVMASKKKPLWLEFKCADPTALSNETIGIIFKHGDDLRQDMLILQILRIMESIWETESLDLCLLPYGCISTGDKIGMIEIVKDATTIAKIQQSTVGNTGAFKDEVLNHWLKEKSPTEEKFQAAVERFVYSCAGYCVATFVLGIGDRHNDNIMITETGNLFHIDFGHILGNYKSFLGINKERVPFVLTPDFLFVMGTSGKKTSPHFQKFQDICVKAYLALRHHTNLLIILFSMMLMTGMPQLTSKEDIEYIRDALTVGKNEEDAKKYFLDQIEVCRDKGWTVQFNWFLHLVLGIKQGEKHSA
assay remarks: PI3 kinase phosphorylation assay (Biological Method 1), Ki γ
Type: biochemical
measurement parameters: Table 2, compounds of formula X
Consider the following compounds and their measured log10 of Ki readings.
property measured: log10 of Ki (log10 of the value in µM)

CCn1cnc(CCNC(=O)Nc2cn3cc(-c4cncc(C(F)(F)F)c4)ccc3n2)c1 [Example 1-23] :: -1.55
CC(C)n1nnc(CCNC(=O)Nc2cn3cc(-c4cncnc4)ccc3n2)n1 [Example 1-4] :: -0.78
CCn1nnc(CCNC(=O)Nc2cn3cc(-c4cccc(C(F)(F)F)c4)ccc3n2)n1 [Example 1-9] :: -0.62
CC(C)n1nnc(CCNC(=O)Nc2cn3cc(-c4ccccc4)ccc3n2)n1 [Example 1-31] :: -0.37
CC(C)n1nnc(CCNC(=O)Nc2cn3cc(-c4ccncc4)ccc3n2)n1 [Example 1-2] :: -0.87
CC(C)n1nnc(CCNC(=O)Nc2cn3cc(-c4cncc(-c5ccccc5)c4)ccc3n2)n1 [Example 1-16] :: -0.62
CC(C)n1nnc(CCNC(=O)Nc2cn3cc(-c4cncc(C(F)(F)F)c4)ccc3n2)n1 [Example 1-7] :: -1.74
CCn1nnc(CCNC(=O)Nc2cn3cc(-c4cncc5ccccc45)ccc3n2)n1 [Example 1-42] :: -0.80
CCc1nnn(CCNC(=O)Nc2cn3cc(-c4cncc(C#N)c4)ccc3n2)n1 [Example 1-26] :: -0.94
CC(C)(C)NC(=O)CCNC(=O)Nc1cn2cc(-c3cncc(-c4ccccc4)c3)ccc2n1 [Example 1-15] :: -0.68
CCn1nnc(CCNC(=O)Nc2cn3cc(-c4cnn(C)c4)ccc3n2)n1 [Example 1-40] :: -0.34
CC(C)n1nnc(CCNC(=O)Nc2cn3cc(-c4cncc(C#N)c4)ccc3n2)n1 [Example 1-3] :: -1.40
O=C(NCCn1nnc(C2CC2)n1)Nc1cn2cc(-c3cncc(C(F)(F)F)c3)ccc2n1 [Example 1-27] :: -1.55
COc1cccc(-c2ccc3nc(NC(=O)NCCc4nnn(C(C)C)n4)cn3c2)c1 [Example 1-29] :: 0.01
CCn1nnc(CCNC(=O)Nc2cn3cc(-c4cnc5ccccc5c4)ccc3n2)n1 [Example 1-30] :: -0.24
CCOc1cncc(-c2ccc3nc(NC(=O)NCCc4nnn(C(C)C)n4)cn3c2)c1 [Example 1-6] :: -1.32
CCn1nnc(CCNC(=O)Nc2cn3cc(Br)ccc3n2)n1 [Example 1-45] :: -0.04
CCn1nnc(CNC(=O)Nc2cn3cc(-c4cncc(C(F)(F)F)c4)ccc3n2)n1 [Example 1-21] :: -1.85
CCc1cncc(-c2ccc3nc(NC(=O)NCCc4nnn(C(C)C)n4)cn3c2)c1 [Example 1-22] :: -1.60
COc1ccc(-c2ccc3nc(NC(=O)NCCc4nnn(CCF)n4)cn3c2)cn1 [Example 1-20] :: -1.12
CCn1nnc(CCNC(=O)Nc2cn3cc(-c4ccc5c(c4)OCO5)ccc3n2)n1 [Example 1-8] :: -0.52
CC(=O)c1cncc(-c2ccc3nc(NC(=O)NCCc4nnn(C(C)C)n4)cn3c2)c1 [Example 1-43] :: -2.10
CC(C)(C)NC(=O)CCNC(=O)Nc1cn2cc(-c3cncc(OC4CCOCC4)c3)ccc2n1 [Example 1-18] :: -0.40
Cn1nnc(CCNC(=O)Nc2cn3cc(-c4cncc(C(F)(F)F)c4)ccc3n2)n1 [Example 1-38] :: -1.92
Cc1ccccc1-c1cncc(-c2ccc3nc(NC(=O)NCCc4nnn(C(C)C)n4)cn3c2)c1 [Example 1-39] :: 0.05
CC(C)n1nnc(CCNC(=O)Nc2cn3cc(-c4cncc(Cl)c4)ccc3n2)n1 [Example 1-12] :: -1.30
CCn1nnc(CCNC(=O)Nc2cn3cc(-c4cncc(C(F)(F)F)c4)ccc3n2)n1 [Example 1-34] :: -2.15
CC(C)n1nnc(CCNC(=O)Nc2cn3cc(-c4cncc(OC5CCOCC5)c4)ccc3n2)n1 [Example 1-13] :: -0.83
Cc1ccc(-c2ccc3nc(NC(=O)NCCc4nnn(C(C)C)n4)cn3c2)cn1 [Example 1-24] :: -0.95
COc1ccc(-c2ccc3nc(NC(=O)NCCc4nnn(C(C)C)n4)cn3c2)cn1 [Example 1-19] :: -0.52
COCCOCCOc1cncc(-c2ccc3nc(NC(=O)NCCc4nnn(C(C)C)n4)cn3c2)c1 [Example 1-17] :: -0.57
Cc1cc(NC(=O)CCNC(=O)Nc2cn3cc(Br)ccc3n2)no1 [Example 1-46] :: 0.70
CC(C)n1nnc(CCNC(=O)Nc2cn3cc(-c4cccc(F)c4)ccc3n2)n1 [Example 1-28] :: -0.08
